Assay: protein stability index of a GFP-peptide fusion (yeast GPS) (PSI 1-4); higher = more stable; sorted into four equal gates, so the index is relative within each strain
Conditions: doa10∆
QUANTITY_MEASURED: protein stability index
Give your answer as a number; write no unit.

# lookup: protein stability index of KIDIIELQKSLSLEEVE [FAS1]
2.92

# lookup: protein stability index of PQDLTFNAGSNPPSYQS [RPB7]
2.96

# lookup: protein stability index of QEQVQDYVNKTNSHLPA [FAS1]
2.52

# lookup: protein stability index of GAAGAWMMNGALQILNS [FAS2]
1.48

# lookup: protein stability index of AGIKTRKFVFNPPKPRK [CYT1]
3.06

# lookup: protein stability index of KPALKVSKEGLYQLVDI [YMR129W/POM152]
3.18

# lookup: protein stability index of LALALGILYMGQGEQVD [RPN1]
1.26

# lookup: protein stability index of KKSRLGNSFHLMRELLK [PRP8]
2.58

# lookup: protein stability index of ILVMETSEEQTKFLAKN [SWP82]
3.01

# lookup: protein stability index of VNRSVVVSAVGEARNDI [YAR002W/NUP60]
2.62

# lookup: protein stability index of EPGHAADQEQAKLIRSA [RPO21]
3.2

# lookup: protein stability index of VKYASPNLNMKYRKRQL [FAS2]
3.6

# lookup: protein stability index of PIKADKDYSQILKEEFP [RPN5]
3

# lookup: protein stability index of NDLVKARDLLDDLEKTL [RPN9]
2.97

# lookup: protein stability index of EEKLKANKEKKKAEKAA [RPL24A]
3.23

# lookup: protein stability index of YKEQIIQGFYWAVKEGP [SNU114]
2.75

# lookup: protein stability index of LRQQQQQQDQPEQSEQP [RPN10]
3.21

# lookup: protein stability index of KDFLKAVDKVISGYKKF [RPT1]
3.21

# lookup: protein stability index of SLVNSYIIDSPQPSSIN [COB]
1.51

# lookup: protein stability index of VSQVRVVPNEKADDDSV [ASC1]
2.72

# lookup: protein stability index of MAILLLYNDADVLTLEN [CDC53]
1.58

# lookup: protein stability index of KSIMDGIHDGHIKKLLH [FAS1]
1.54

# lookup: protein stability index of PGGILRAQHVKKLATRP [RPL34A]
3.04

###

Assay: protein stability index of a GFP-peptide fusion (yeast GPS) (PSI 1-4); higher = more stable; sorted into four equal gates, so the index is relative within each strain
Settings: ubr1∆
Dear colleague, classification is by protein stability index, with ranges listed here: small value = under 2, mid value = from 2 up to 3, large value = 3 and over

Tag the class for EDEEDDNISSFHSAVEN [YCG1]
mid value

Tag the class for QREAAAEYAQLLAKRLS [RPS6A]
mid value

Tag the class for SGNNSKKRKNKSSGSSM [ROX3]
large value

Tag the class for GLLSQAIGCIERSDLLP [YJR042W/NUP85]
mid value

Tag the class for HAMGGREGLIDTAVKTA [RPO21]
small value

Tag the class for IELKTDWVRFLALALGI [RPN1]
small value

Tag the class for VVIDAFRLIDTGALINN [RPN11]
small value

Tag the class for AGANDTSNNETNNGNDD [GRR1]
mid value

Tag the class for HKVSSQSTNLNRSAKNS [YCS4]
mid value

Tag the class for NAGTEKEKESKKDSKPA [YLR335W/NUP2]
large value

Tag the class for NPRRLEIKDGRSLFLRN [YMR153W/NUP53]
large value

Tag the class for DIFGANAASGSNSNVTN [YOR098C/NUP1]
mid value

Tag the class for RVHANLQCISQINQGVP [SNF11]
small value

Tag the class for TRNPDAPKGSTDPKELY [RPC40]
large value

Tag the class for NNNNTTTTTTTTNNNNT [SWI1]
large value

Tag the class for FHTSFSAVVGPNGSGKS [SMC4]
large value

Tag the class for RRKKILNEIELDNLKLK [GRR1]
mid value

Tag the class for MSTDSIVKASNWRLVEV [RPL14A]
small value

Tag the class for AHIAKNLINLSIGASIA [YCS4]
small value

Tag the class for RERQVNEKLADLGLEKE [RPC53]
large value

Tag the class for QGRFRGNLSGKRVDFSG [RPO31]
mid value

Tag the class for EEGEYKNAANTEGHKGH [ISW2]
large value

Tag the class for FREAIVATEPLLDILVK [PRP8]
small value

Tag the class for TIETFNEAALVVNITHH [RPB5]
small value

Tag the class for GVVRYVMESGAKGCEVV [RPS3]
small value

Tag the class for LSLTTVPCDRIEKSRLF [SNF6]
mid value

Tag the class for DTETFDTVNSALENDVA [YML103C/NUP188]
mid value

Tag the class for QVLVTTNQDGLKFVKVR [RPB2]
small value

Tag the class for AVSEKAGHQTSAESWGT [RPL4A]
small value

Tag the class for DVVEYLDKVINKELPIN [RPN8]
large value

Tag the class for ALLKLSVKLKQKRLEAG [DIS3]
small value

Tag the class for NNSSSGMNNASAGLFGS [YGL172W/NUP49]
large value

Tag the class for GTSTTHGSISPQEESVS [SIR3]
mid value

Tag the class for TKENGDFTLPEDFAPLL [PRP8]
large value

Tag the class for CIFNFLQQQTPVTIWLF [SME1]
small value

Tag the class for GPSIYKTDPAGYYVGYK [SCL1]
large value

Tag the class for SQKTKTIQSDLNLSLHK [SMC2]
mid value

Tag the class for QSLGLDDLQKFNGIENQ [ISW2]
mid value

Tag the class for GDDVVNDVQGIDDVQTI [RPP1]
large value

Tag the class for LVRYGLAEKVEKASRQQ [RPS24A]
large value

Tag the class for STYLPKLISAFDDLEVE [RRP42]
mid value

Tag the class for TTEMLDKLMVTSIRSTP [MED6]
mid value

Tag the class for LYGPPGTGKTMLVKAVA [RPT3]
small value

Tag the class for IFRGSLIGCIPYSKNAV [YDL088C/ASM4]
mid value

Tag the class for VSSKPSKPESSVLQLIV [MED1]
large value

Tag the class for LLRSVLVLLELVSSGDR [YML103C/NUP188]
mid value

Tag the class for GDHSSVPVALKGQGPFT [YMR129W/POM152]
small value

Tag the class for HRINMDKYHPGYFGKVG [RPL28]
large value

Tag the class for SKRYIPSVNDFVIGVII [RRP40]
mid value
